- assay-procedure: Plasma pharmacokinetics after oral multi-dose anatabine polacrilex
- Format: in vivo, Sprague-Dawley rats
- settings: Sprague-Dawley, rat, plasma, oral, 2 mg/kg BW; dose group 2, female, 540 min, mean
- Experimental: This study consisted of two groups of 8 animals each, 4 males and 4 females. The vehicle was sterile phosphate buffered saline (PBS) (Amresco). […] Two formulations were prepared; one for each of the two treatment groups. […] Sample preparation. […] The amount of the test agent in the supernatant was determined by LC/MS/MS. […] Descriptive statistics were calculated for all pharmacokinetic parameters. […]
observation-type: concentration at 540 min

Memo: C1=CCC(c2cccnc2)NC1 (racemic) [Anatabine, 1,2,3,6-tetrahydro-[2,3′]bipyridinyl] , reported concentration at 540 min: 386 ng/mL

---

- assay-procedure: Plasma pharmacokinetics after oral multi-dose anatabine polacrilex
- Assay type: in vivo, Sprague-Dawley rats
- settings: Sprague-Dawley, rat, plasma, oral, 2 mg/kg BW; dose group 2, female, 30 min, mean
- Experimental: This study consisted of two groups of 8 animals each, 4 males and 4 females. The vehicle was sterile phosphate buffered saline (PBS) (Amresco). […] Two formulations were prepared; one for each of the two treatment groups. […] Sample preparation. […] The amount of the test agent in the supernatant was determined by LC/MS/MS. […] Descriptive statistics were calculated for all pharmacokinetic parameters. […]
observation-type: concentration at 30 min
// return the numeric value with its unit appended

Reported concentration at 30 min ( C1=CCC(c2cccnc2)NC1 (racemic) [Anatabine, 1,2,3,6-tetrahydro-[2,3′]bipyridinyl] ) = 160 ng/mL

---

- assay-procedure: Plasma pharmacokinetics after oral multi-dose anatabine polacrilex
- Format: in vivo, Sprague-Dawley rats
- settings: Sprague-Dawley, rat, plasma, oral, 2 mg/kg BW; dose group 2, female, 720 min, mean
observation-type: concentration at 720 min (ng/mL)
Supply the numeric figure in ng/mL, leaving out any unit text.

Item: C1=CCC(c2cccnc2)NC1 (racemic) [Anatabine, 1,2,3,6-tetrahydro-[2,3′]bipyridinyl] | concentration at 720 min: 208

---

- assay-procedure: Plasma toxicokinetics after single i.v. bolus
- Assay type: in vivo, Sprague-Dawley rats
- settings: both sexes, Sprague-Dawley, iv; rat plasma; single i.v. 0.75 mg/kg; M + F
observation-type: half-life (h)
Provide the reading as a plain figure in h.

Form: compound = C1=CCC(c2cccnc2)NC1 (racemic) [Anatabine, 1,2,3,6-tetrahydro-[2,3′]bipyridinyl] ; half-life = 1.68

---

- assay-procedure: Plasma toxicokinetics after single i.v. bolus
- Assay type: in vivo, Sprague-Dawley rats
- settings: Sprague-Dawley, iv; rat plasma; single i.v. 0.1 mg/kg; female
observation-type: half-life (h)
Supply the numeric figure in h, leaving out any unit text.

What the record says about C1=CCC(c2cccnc2)NC1 (racemic) [Anatabine, 1,2,3,6-tetrahydro-[2,3′]bipyridinyl] : half-life is 1.64

---

- assay-procedure: Plasma pharmacokinetics after oral multi-dose anatabine polacrilex
- Format: in vivo, Sprague-Dawley rats
- settings: Sprague-Dawley, rat, plasma, oral, 2 mg/kg BW; dose group 2, female, 475 min, mean
observation-type: concentration at 475 min (ng/mL)
Give the value in ng/mL but do not write ng/mL after it.

Record summary for C1=CCC(c2cccnc2)NC1 (racemic) [Anatabine, 1,2,3,6-tetrahydro-[2,3′]bipyridinyl] : reported concentration at 475 min = 192

---

- assay-procedure: Plasma pharmacokinetics after oral multi-dose anatabine polacrilex
- Type: in vivo, Sprague-Dawley rats
- settings: Sprague-Dawley, rat, plasma, oral, 2 mg/kg BW; dose group 2, female, 300 min, mean
observation-type: concentration at 300 min (ng/mL)
Kindly answer with a numeric value in ng/mL, unit omitted.

Recorded concentration at 300 min (compound C1=CCC(c2cccnc2)NC1 (racemic) [Anatabine, 1,2,3,6-tetrahydro-[2,3′]bipyridinyl] ): 234

---

- assay-procedure: Plasma toxicokinetics after single i.v. bolus
- Assay type: in vivo, Sprague-Dawley rats
- settings: Sprague-Dawley, iv; rat plasma; single i.v. 0.75 mg/kg; male
observation-type: half-life (h)
Number in h, nothing else.

Field half-life (entry C1=CCC(c2cccnc2)NC1 (racemic) [Anatabine, 1,2,3,6-tetrahydro-[2,3′]bipyridinyl] ) reads 1.64
